test system: RPS6KA5(Kin.Dom.2-C-terminal); conditions: concentration: 1 μM, replicates: in singlicate; n = 1;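 further: KINOMEscan kinase panel screen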
measurement_label: %Inh (%)
Express it in %; write the number only.

Enquiry: I would be grateful if you could share the reported %Inh for COCCNC(=O)c1ccc(-c2cc(C(=O)NC3CC3)cc(F)c2C)cc1 [GW868318] .
Return: 21

Enquiry: What measured %Inh goes with Cl.Oc1cccc(Nc2ccnc3cc(-c4ccncc4)ccc23)c1 [GW494601] ?
Return: 16

Enquiry: Need %Inh, item O=c1cc(N2CCOCC2)nc2n(Cc3cccc4ccccc34)ccn12 [GSK2333389]
Return: 0

Enquiry: If you can, please state the reported %Inh value of O=c1cc(N2CCOCC2)nc2n(Cc3cccc(F)c3)ccn12 [GSK2297430] .
Return: 0

###

test system: CDK5; conditions: concentration: 1 μM, replicates: in singlicate; n = 1
measurement_label: %Inh (%)
Field format: number, assumed %, no unit text.

Below are worked cases with known answers.
molecule="COc1ccc(CNC(=O)NC2CCN(c3ccnc(Nc4ccc(OC)cc4)n3)C2)cc1 (stereo not shown) [GSK1379727]" measured_on=CDK5 measurement_label=%Inh reading_unit=% test_value=0
molecule="O=C(Nc1cccc(-c2nn3ncccc3c2-c2ccnc(Nc3cccc(C(F)(F)F)c3)n2)c1)c1c(F)cccc1F [GSK299495]" measured_on=CDK5 measurement_label=%Inh reading_unit=% test_value=0
molecule="Cl.Cl.Cl.Fc1ccc(-c2ncn(C3CCNCC3)c2-c2ccnc(Nc3ccccc3)n2)cc1 [SB-238039]" measured_on=CDK5 measurement_label=%Inh reading_unit=% test_value=0

Enquiry: // returns reported %Inh for input Fc1ccc(-c2nn3c(OCC(F)(F)F)cccc3c2-c2ccncc2)cc1 [GW514784]
Return: 0

Enquiry: Form field: reported %Inh of Fc1ccc(-c2ncn(CCCN3CCOCC3)c2-c2cccnc2)cc1 [SB-211743]
Return: 0

Enquiry: Consider the molecule CN(C1=C(c2ccccc2)C(=O)NC1=O)c1ccccc1 [SB-334860] and give its measured %Inh.
Return: 6

Enquiry: Fill in: %Inh of Cc1nnc(-c2ccc3occ(-c4ccc(C(C)O)cc4)c3c2)o1 (stereo not shown) is ___
Return: 1

Enquiry: What value of %Inh has been recorded for this entry: `O=C1Cc2cc(Nc3nc(NCc4cccc(S(=O)(=O)C(F)(F)F)c4)ncc3C(F)(F)F)ccc2N1`
Return: 14

Enquiry: Item `Cc1cccc(-c2nc(-c3ccc(S(C)(=O)=O)cc3)sc2-c2ccncc2)c1` has what recorded %Inh?
Return: 12

###

Below: a set of entries, each annotated with reported %Inh.
tested on: PIM1; conditions: concentration: 1 μM, replicates: in singlicate; n = 1
Kindly provide the numeric value in % only, without the unit symbol.

Example entries begin here.
compound="NCC(NC(=O)c1cc(-c2cn[nH]c2)c(-c2ccnc3[nH]ccc23)s1)c1ccccc1.O=C(O)C(F)(F)F.O=C(O)C(F)(F)F (stereo not shown)" reading_unit=% test_value=39
compound=CC(C)(CN)c1nc(-c2ccc(Cl)c(O)c2)c(-c2ccncc2)[nH]1.O=C(O)C(F)(F)F reading_unit=% test_value=0
compound=O=C(Nc1n[nH]c2cc(-c3cccc(F)c3)ccc12)C1CC1 reading_unit=% test_value=2

Enquiry: // %Inh lookup, key: `Nc1nccc(-c2c(-c3ccc(F)cc3)ncn2C2CCN(CC(F)(F)F)CC2)n1`
Return: 0

Values from paper PMC5540273
